- TEST_PROTOCOL: Use of additives to improve separation of Nd/Dy mixture by precipitation with L5 (Example 18)
- Type: physicochemical
- MEASUREMENT_CONTEXT: additive 100 mM; 11 mM L5
PROPERTY_LABEL: Precipitate concentration [mM] Dy (mM)
Write the answer as a number in mM, unit excluded.

Example compounds with recorded Precipitate concentration [mM] Dy:
Problem: // lookup Precipitate concentration [mM] Dy for O=CO [formate]
Solution: 3.84

Problem: Entry CC(=O)O [acetate] has what Precipitate concentration [mM] Dy?
Solution: 1.74

Problem: I have this compound here, O=[N+]([O-])O [nitrate] , and I need its recorded Precipitate concentration [mM] Dy.
Solution: 4.27

Problem: # Precipitate concentration [mM] Dy lookup, item "NCC(=O)O"
Solution: 2.79

Problem: What does the data say about its Precipitate concentration [mM] Dy? Entry: O=S(=O)(O)O [sulfate]
Solution: 4.52

Problem: // Precipitate concentration [mM] Dy lookup, key: Cl [chloride]
Solution: 4.58

Problem: # query: Precipitate concentration [mM] Dy of entry N#C[S-].[Na+] [thiocyanate]
Solution: 4.46

Now look at this entry.
Problem: Reported Precipitate concentration [mM] Dy for "O=C(O)c1ccccc1" : what is it?
Solution: 0.97

====

- TEST_PROTOCOL: Use of additives to improve separation of Nd/Dy mixture by precipitation with L5 (Example 18)
- Type: physicochemical
- MEASUREMENT_CONTEXT: additive 5 mM; 11 mM L5
- Method: Stock solutions were pipetted into plastic 1×1 cm cuvettes to prepare reaction mixtures with concentrations as follows: • 1. […] 5 mM NdCl3 • 3. 5 mM DyCl3 • 4. […] These aqueous reaction mixtures, each prepared to a total volume of 2.0 mL with the addition of water as necessary, were mixed by the use of a PTFE-coated stir bar on a magnetic stirrer. […] The absolute concentration of Nd and Dy in each supernatant and precipitate was determined by ICP-OES.
PROPERTY_LABEL: Precipitate concentration [mM] Nd (mM)
Please respond with the number in mM and leave the unit unwritten.

Recorded Precipitate concentration [mM] Nd, per entry:
Problem: Need Precipitate concentration [mM] Nd, item C[C@H](O)C(=O)O [l-lactate]
Solution: 4.33

Problem: For O=C(O)CO [glycolate] , what is its reported Precipitate concentration [mM] Nd?
Solution: 4.64

New cases:
Problem: Which value of Precipitate concentration [mM] Nd has been reported for CC(C)(O)C(=O)O [α-HIBA, alpha-hydroxyisobutyric acid] in the records?
Solution: 4.32

Problem: Look at this compound and give its reported Precipitate concentration [mM] Nd. F [fluoride]
Solution: 6.21

Problem: What value of Precipitate concentration [mM] Nd has been recorded for this entry: O=C(O)CC(O)(CC(=O)O)C(=O)O [citrate]
Solution: 4.77

====

- TEST_PROTOCOL: Use of additives to improve separation of Nd/Dy mixture by precipitation with L5 (Example 18)
- Format: physicochemical
- MEASUREMENT_CONTEXT: additive 15 mM; 11 mM L5
PROPERTY_LABEL: Precipitate concentration [mM] Dy (mM)
Your answer should be a plain number; it is taken to be in mM.

Solved entries:
Problem: What does the data say about its Precipitate concentration [mM] Dy? Entry: O=C(O)CO [glycolate]
Solution: 1.11

Problem: Using the record for F [fluoride] , report its Precipitate concentration [mM] Dy.
Solution: 2.72

Problem: Item under review: C[C@H](O)C(=O)O [l-lactate] . Reported Precipitate concentration [mM] Dy?
Solution: 1.60

// next entry
Problem: What Precipitate concentration [mM] Dy value was documented for this compound, CC(C)(O)C(=O)O [α-HIBA, alpha-hydroxyisobutyric acid] ?
Solution: 1.18

Reference source: patent US20230356105A1
